# System: 922993-354-T-J3-PDC complex spheroid viability
# Protocol Notes: Anticancer human tumor 922993-354-T-J3-PDC patient-derived endometrial carcinoma cell line growth inhibition [POLQ]
# Details: second compound 1 µM; first compound 0.01 µM; hits give low values
Quantity Kind: viability, T/C (%)
Give just the numeric value; % need not be written.

Worked cases, viability, T/C given:
Compound | viability, T/C, %
Cn1ncnc1[C@H]1c2n[nH]c(=O)c3cc(F)cc(c23)N[C@@H]1c1ccc(F)cc1 + Nc1ccc(C#CCN(C(=O)Cc2ncc(C(F)(F)F)cc2C(F)(F)F)c2ccc(F)cc2)nn1 | 98.1
COc1cccc(OCCCN)c1-c1cc(Nc2cnc(C#N)cn2)n[nH]1 + Cc1cccc(N(C)C(=O)C2C(O)CCN2c2nc(C)cc(C(F)(F)F)c2C#N)c1 | 98.8

Supply reported viability, T/C belonging to this compound: Cn1ncnc1[C@H]1c2n[nH]c(=O)c3cc(F)cc(c23)N[C@@H]1c1ccc(F)cc1 + Cc1cccc(N(C)C(=O)C2C(O)CCN2c2nc(C)cc(C(F)(F)F)c2C#N)c1
96.8

###

# Test system: 922993-354-T-J3-PDC complex spheroid viability
# Protocol Notes: Anticancer human tumor 922993-354-T-J3-PDC cell line growth inhibition [POLQ];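 also: spheroids exposed to the agents for one week; 100% = DMSO vehicle control wells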
# Details: second compound 0.1 µM; first compound 0.1 µM; hits give low values
Quantity Kind: viability, T/C (%)
Give a bare numeral; the unit % is implied.

Compound | Assay System | Unit Label | viability, T/C
O=c1[nH]cc(F)c(=O)[nH]1 + Cc1cccc(N(C)C(=O)C2C(O)CCN2c2nc(C)cc(C(F)(F)F)c2C#N)c1 | 922993-354-T-J3-PDC complex spheroid viability | % | 95.7

Name the recorded viability, T/C of the item CCc1cc2c(N3CCc4c(cc(Cn5ccnc5)cc4-c4cn(C)nc4C(F)(F)F)C3=O)cc(C)nc2c(OC)n1 + Cc1cccc(N(C)C(=O)C2C(O)CCN2c2nc(C)cc(C(F)(F)F)c2C#N)c1 in your answer.
101

Look up viability, T/C of COc1cc(C2c3cc4c(cc3C(OC3OC5COC(C)OC5C(O)C3O)C3COC(=O)C23)OCO4)cc(OC)c1O (stereo unspecified) + Nc1ccc(C#CCN(C(=O)Cc2ncc(C(F)(F)F)cc2C(F)(F)F)c2ccc(F)cc2)nn1 and report it.
102

Provide measured viability, T/C value, entry: COc1cccc(OCCCN)c1-c1cc(Nc2cnc(C#N)cn2)n[nH]1 + Cc1cccc(N(C)C(=O)C2C(O)CCN2c2nc(C)cc(C(F)(F)F)c2C#N)c1
97.7

Look up and state reported viability, T/C for CC1COCCN1c1cc(-c2ccnn2C)c2ccnc(-c3ccn[nH]3)c2n1 (stereo unspecified) + Cc1cccc(N(C)C(=O)C2C(O)CCN2c2nc(C)cc(C(F)(F)F)c2C#N)c1
58.2

Kindly indicate its recorded viability, T/C. Item: CCc1cc2c(N3CCc4c(cc(Cn5ccnc5)cc4-c4cn(C)nc4C(F)(F)F)C3=O)ccnc2c(OC)n1 + COC1C(OC(N)=O)C(O)C(Oc2ccc3c(O)c(NC(=O)c4ccc(O)c(CC=C(C)C)c4)c(=O)oc3c2C)OC1(C)C
102

###

# Test system: 922993-354-T-J3-PDC complex spheroid viability
# Protocol Notes: Anticancer human tumor 922993-354-T-J3-PDC cell line growth inhibition [POLQ]; active = viability on the fitted dose curve at most 10% of control; inactive = the rest;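 also: spheroids exposed to the agents for one week; 100% = DMSO vehicle control wells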
# Details: second compound 10 µM; first compound 10 µM
Choose the fitting class; nothing outside yes = active, no = inactive is accepted.

These solved cases illustrate the format of a correct answer.
Molecule | Group
CCc1cc2c(N3CCc4c(cc(Cn5ccnc5)cc4-c4cn(C)nc4C(F)(F)F)C3=O)cc(C)nc2c(OC)n1 + Cc1cccc(N(C)C(=O)C2C(O)CCN2c2nc(C)cc(C(F)(F)F)c2C#N)c1 | no
COc1cc(C2c3cc4c(cc3C(OC3OC5COC(C)OC5C(O)C3O)C3COC(=O)C23)OCO4)cc(OC)c1O (stereo not given) + Nc1ccc(C#CCN(C(=O)Cc2ncc(C(F)(F)F)cc2C(F)(F)F)c2ccc(F)cc2)nn1 | no
CC(C)n1c(=O)n(C)c2cnc3cc(F)c(-c4ccc(OCCCN5CCCCC5)nc4)cc3c21 + Cc1cccc(N(C)C(=O)C2C(O)CCN2c2nc(C)cc(C(F)(F)F)c2C#N)c1 | no
Nc1ccn(C2OC(CO)C(O)C2(F)F)c(=O)n1 (stereo not given) + Nc1ccc(C#CCN(C(=O)Cc2ncc(C(F)(F)F)cc2C(F)(F)F)c2ccc(F)cc2)nn1 | no
CC1COCCN1c1cc(-c2ccnn2C)c2ccnc(-c3ccn[nH]3)c2n1 (stereo not given) + COC1C(OC(N)=O)C(O)C(Oc2ccc3c(O)c(NC(=O)c4ccc(O)c(CC=C(C)C)c4)c(=O)oc3c2C)OC1(C)C | yes

GET /call?item= CCc1cc2c(N3CCc4c(cc(Cn5ccnc5)cc4-c4cn(C)nc4C(F)(F)F)C3=O)ccnc2c(OC)n1 + Nc1ccc(C#CCN(C(=O)Cc2ncc(C(F)(F)F)cc2C(F)(F)F)c2ccc(F)cc2)nn1 returns the recorded outcome of this test.
no

For CC(C)n1c(=O)n(C)c2cnc3cc(F)c(-c4ccc(OCCCN5CCCCC5)nc4)cc3c21 + COC1C(OC(N)=O)C(O)C(Oc2ccc3c(O)c(NC(=O)c4ccc(O)c(CC=C(C)C)c4)c(=O)oc3c2C)OC1(C)C , what call appears in the results of this test?
no

# outcome recorded in this test, key = C=CC(=O)N1CCN(c2nc(=O)n(-c3c(C)ccnc3C(C)C)c3nc(-c4c(O)cccc4F)c(F)cc23)C(C)C1 (stereo not given) + COC1C(OC(N)=O)C(O)C(Oc2ccc3c(O)c(NC(=O)c4ccc(O)c(CC=C(C)C)c4)c(=O)oc3c2C)OC1(C)C
no

Please let me know the test result on file for O=c1[nH]cc(F)c(=O)[nH]1 + Nc1ccc(C#CCN(C(=O)Cc2ncc(C(F)(F)F)cc2C(F)(F)F)c2ccc(F)cc2)nn1 .
no

Which outcome was assigned to CCc1cc2c(N3CCc4c(cc(Cn5ccnc5)cc4-c4cn(C)nc4C(F)(F)F)C3=O)ccnc2c(OC)n1 + COC1C(OC(N)=O)C(O)C(Oc2ccc3c(O)c(NC(=O)c4ccc(O)c(CC=C(C)C)c4)c(=O)oc3c2C)OC1(C)C in this test?
no

###

# Test system: 922993-354-T-J3-PDC complex spheroid viability
# Protocol Notes: Anticancer human tumor 922993-354-T-J3-PDC cell line growth inhibition [POLQ];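 also: spheroids exposed to the agents for one week; 100% = DMSO vehicle control wells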
# Details: second compound 10 µM; first compound 10 µM; hits give low values
The following molecules are listed with their measured viability, T/C values.
Give your result in % as a bare value.

Molecule | Assay System | viability, T/C [%]
CCc1cc2c(N3CCc4c(cc(Cn5ccnc5)cc4-c4cn(C)nc4C(F)(F)F)C3=O)cc(C)nc2c(OC)n1 + Nc1ccc(C#CCN(C(=O)Cc2ncc(C(F)(F)F)cc2C(F)(F)F)c2ccc(F)cc2)nn1 | 922993-354-T-J3-PDC complex spheroid viability | 92
O=C(Nc1ccc(O)c(NS(=O)(=O)c2ccc(F)cc2)c1)c1ccc(-c2ccccc2)cc1 + Cc1cccc(N(C)C(=O)C2C(O)CCN2c2nc(C)cc(C(F)(F)F)c2C#N)c1 | 922993-354-T-J3-PDC complex spheroid viability | 97
CC1COCCN1c1cc(C2(O)CC3CCC(C2)O3)c2cnn(-c3ccn[nH]3)c2n1 (stereo not given) + Cc1cccc(N(C)C(=O)C2C(O)CCN2c2nc(C)cc(C(F)(F)F)c2C#N)c1 | 922993-354-T-J3-PDC complex spheroid viability | 9.69
COc1ccc([C@@H](O)c2cc(-c3ncnc4cc(N5CCOCC5)ccc34)c(F)cc2Cl)nn1 + COC1C(OC(N)=O)C(O)C(Oc2ccc3c(O)c(NC(=O)c4ccc(O)c(CC=C(C)C)c4)c(=O)oc3c2C)OC1(C)C | 922993-354-T-J3-PDC complex spheroid viability | 69.8

// next item, viability, T/C requested
Given CCCS(=O)(=O)Nc1ccc(F)c(C(=O)c2c[nH]c3ncc(-c4ccc(Cl)cc4)cc23)c1F + COC1C(OC(N)=O)C(O)C(Oc2ccc3c(O)c(NC(=O)c4ccc(O)c(CC=C(C)C)c4)c(=O)oc3c2C)OC1(C)C , respond with its viability, T/C.
59.5

###

# System: 922993-354-T-J3-PDC complex spheroid viability
# Protocol Notes: Anticancer human tumor 922993-354-T-J3-PDC cell line growth inhibition [POLQ];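 also: spheroids exposed to the agents for one week; 100% = DMSO vehicle control wells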
# Details: second compound 0.316 µM; first compound 10 µM; hits give low values
Quantity Kind: viability, T/C (%)
Numbers only here, please. The scale is %.

// worked examples, viability, T/C included
Compound | viability, T/C, %
CC1COCCN1c1cc(C2(S(C)(=N)=O)CC2)nc(-c2ccnc3[nH]ccc23)n1 (stereo not drawn) + COC1C(OC(N)=O)C(O)C(Oc2ccc3c(O)c(NC(=O)c4ccc(O)c(CC=C(C)C)c4)c(=O)oc3c2C)OC1(C)C | 52.5
CCc1cc2c(N3CCc4c(cc(Cn5ccnc5)cc4-c4cn(C)nc4C(F)(F)F)C3=O)cc(C)nc2c(OC)n1 + COC1C(OC(N)=O)C(O)C(Oc2ccc3c(O)c(NC(=O)c4ccc(O)c(CC=C(C)C)c4)c(=O)oc3c2C)OC1(C)C | 88.1

Report viability, T/C from 922993-354-T-J3-PDC complex spheroid viability testing of CCc1cc2c(N3CCc4c(cc(Cn5ccnc5)cc4-c4cn(C)nc4C(F)(F)F)C3=O)ccnc2c(OC)n1 + COC1C(OC(N)=O)C(O)C(Oc2ccc3c(O)c(NC(=O)c4ccc(O)c(CC=C(C)C)c4)c(=O)oc3c2C)OC1(C)C
79.6
